Test system: HCC1937;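 further: viability read by CCK-8 kit in 96-well plates, part of a combination screen pairing lipid-metabolism-targeting compounds with erastin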
Assay: relative cell viability, compound + erastin, vs DMSO (fraction of DMSO control); higher = less growth inhibition
Settings: 72 h
# if measured relative cell viability < 0.6: label 1  # else: label 0

The examples below pair each entry with its known result.
- Molecule: "CCOC(=O)C(C)(C)Oc1ccc(Cl)cc1 [Clofibrate] + CCOc1ccccc1-n1c(C(C)N2CCN(C(=O)COc3ccc(Cl)cc3)CC2)nc2ccccc2c1=O"
  Discrete Label: "label 0"
- Molecule: "CCCCCCCCCCCCC/C=C/[C@@H](O)[C@@H](N)CO + CCOc1ccccc1-n1c(C(C)N2CCN(C(=O)COc3ccc(Cl)cc3)CC2)nc2ccccc2c1=O"
  Discrete Label: "label 1"
- Molecule: "CC(C)[C@H](N=C(NS(=O)(=O)c1ccc(Cl)cc1)N1C[C@H](c2ccccc2)C(c2ccc(Cl)cc2)=N1)C(N)=O + CCOc1ccccc1-n1c(C(C)N2CCN(C(=O)COc3ccc(Cl)cc3)CC2)nc2ccccc2c1=O"
  Discrete Label: "label 1"
- Molecule: "COc1cc(N2CCN(C)CC2)ccc1Nc1ncc2c(n1)N(C1CCC1)C(=O)N(c1c(C)cccc1C)C2 + CCOc1ccccc1-n1c(C(C)N2CCN(C(=O)COc3ccc(Cl)cc3)CC2)nc2ccccc2c1=O"
  Discrete Label: "label 1"

Q: # TODO verify relative cell viability < 0.6 strictly for this molecule: CCCCCCCCCCCCCCCC(=O)NCCO [Palmidrol] + CCOc1ccccc1-n1c(C(C)N2CCN(C(=O)COc3ccc(Cl)cc3)CC2)nc2ccccc2c1=O
A: label 0

Q: Is relative cell viability strictly under 0.6 for the entry COP(=O)(OC)OC(c1ccc(Cl)cc1)P(=O)(OC)OC (stereo not given) [Mifobate] + CCOc1ccccc1-n1c(C(C)N2CCN(C(=O)COc3ccc(Cl)cc3)CC2)nc2ccccc2c1=O ?
A: label 0
